Hello, the source for this data is the supplement of paper PMC11061612, in case you need it.

# System: BFTC-909 (Kidney Carcinoma)
# Method: combination Emax (second highest fraction inhibited in the dose matrix, 72 h); higher = more inhibition; extreme values may be limits of the assay
Measure: combination Emax

1. CN(C)CCCOc1ccc(-c2ccc3ncc4c(c3c2)n(C2CCOCC2)c(=O)n4C)cn1 [AZD0156] + O=C(c1cc(Cc2n[nH]c(=O)c3ccccc23)ccc1F)N1CCN(C(=O)C2CC2)CC1 [Olaparib] (first compound max 3 µM, partner max 3 µM) | 0.527
2. Cc1cc2ncnn2cc1Nc1ncc2c(n1)n(C1CCOCC1)c(=O)n2C [AZD7648] + C=CCn1c(=O)c2cnc(Nc3ccc(N4CCN(C)CC4)cc3)nc2n1-c1cccc(C(C)(C)O)n1 [AZD1775] (first compound max 10 µM, partner max 1 µM) | 0.619
3. CN(CCO)CC[C@H](CSc1ccccc1)Nc1ccc(S(=O)(=O)NC(=O)c2ccc(N3CCC([C@@H](O)c4ccccc4-c4ccc(Cl)cc4)CC3)cc2)cc1S(=O)(=O)C(F)(F)F [AZD4320] + C[C@@H]1COCCN1C2=NC(=NC(=C2)C3(CC3)[S@](=N)(=O)C)C4=C5C=CNC5=NC=C4 [AZD6738] (first compound max 1 µM, 7x7, partner max 10 µM) | 0.997
4. CCN(CCO)CCCOc1ccc2c(Nc3cc(CC(=O)Nc4cccc(F)c4)[nH]n3)ncnc2c1 [AZD2811] + O=C(c1cc(Cc2n[nH]c(=O)c3ccccc23)ccc1F)N1CCN(C(=O)C2CC2)CC1 [Olaparib] (first compound max 1 µM, 7x7, partner max 10 µM) | 0.221

###

# System: SNU-449 (Hepatocellular Carcinoma)
# Method: Bliss excess, mean over the matrix (fraction); higher = more synergy
Measure: Bliss excess

1) C[C@@H](Oc1cc(-c2cnn(C3CCNCC3)c2)cnc1N)c1c(Cl)ccc(F)c1Cl [Crizotinib] + Cn1cnc2c(F)c(Nc3ccc(Br)cc3Cl)c(C(=O)NOCCO)cc21 [Selumetinib] (first compound max 10 µM, 7x7, partner max 10 µM) | -0.0665
2) CC1(C)CCC(CN2CCN(c3ccc(C(=O)NS(=O)(=O)c4ccc(NCC5CCOCC5)c([N+](=O)[O-])c4)c(Oc4cnc5[nH]ccc5c4)c3)CC2)=C(c2ccc(Cl)cc2)C1 [Venetoclax] + COc1cc(Nc2ncc3c(n2)-c2ccc(Cl)cc2C(c2c(F)cccc2OC)=NC3)ccc1C(=O)O [Alisertib] (first compound max 1 µM, 7x7, partner max 10 µM) | -0.0753
3) Cn1cnc2c(F)c(Nc3ccc(Br)cc3Cl)c(C(=O)NOCCO)cc21 [Selumetinib] + C[C@@H]1COCCN1C2=NC(=NC(=C2)C3(CC3)[S@](=N)(=O)C)C4=C5C=CNC5=NC=C4 [AZD6738] (first compound max 10 µM, 7x7, partner max 10 µM) | -0.0403

###

Let's look at some molecules and their measured Bliss excess.
# System: NCI-H2052 (Mesothelioma)
# Method: Bliss excess, mean over the matrix (fraction); higher = more synergy
Measure: Bliss excess

1. CN(C)CCCOc1ccc(-c2ccc3ncc4c(c3c2)n(C2CCOCC2)c(=O)n4C)cn1 [AZD0156] + C=CCn1c(=O)c2cnc(Nc3ccc(N4CCN(C)CC4)cc3)nc2n1-c1cccc(C(C)(C)O)n1 [AZD1775] (first compound max 1 µM, partner max 1 µM) | -0.0554
2. COc1nnc2ccc(N3CCC(c4ccc(OCCN5CCN(C)C(=O)[C@H]5C)cc4)CC3)nn12 [AZD5153] + CC1(C)CCC(CN2CCN(c3ccc(C(=O)NS(=O)(=O)c4ccc(NCC5CCOCC5)c([N+](=O)[O-])c4)c(Oc4cnc5[nH]ccc5c4)c3)CC2)=C(c2ccc(Cl)cc2)C1 [Venetoclax] (first compound max 1 µM, 7x7, partner max 1 µM) | -0.0748
3. CN(CCO)CC[C@H](CSc1ccccc1)Nc1ccc(S(=O)(=O)NC(=O)c2ccc(N3CCC([C@@H](O)c4ccccc4-c4ccc(Cl)cc4)CC3)cc2)cc1S(=O)(=O)C(F)(F)F [AZD4320] + Cn1cnc2c(F)c(Nc3ccc(Br)cc3Cl)c(C(=O)NOCCO)cc21 [Selumetinib] (first compound max 1 µM, 7x7, partner max 3 µM) | 0.0283

###

# Tested on: LNZTA3WT4 (Low Grade Glioma)
# Method: Bliss excess, mean over the matrix (fraction); higher = more synergy
Let's look at some compounds and their measured Bliss excess.
Measure: Bliss excess

1) C[C@@H](Nc1cc(F)cc(F)c1)c1cc(C(=O)N(C)C)cc2c(=O)cc(N3CCOCC3)oc12 [AZD8186] + CC(=O)c1c(C)c2cnc(Nc3ccc(N4CCNCC4)cn3)nc2n(C2CCCC2)c1=O [Palbociclib] (first compound max 10 µM, 7x7, partner max 10 µM) | 0.111
2) O=C(c1cc(Cc2n[nH]c(=O)c3ccccc23)ccc1F)N1CCN(C(=O)C2CC2)CC1 [Olaparib] + COc1nnc2ccc(N3CCC(c4ccc(OCCN5CCN(C)C(=O)[C@H]5C)cc4)CC3)nn12 [AZD5153] (first compound max 10 µM, 7x7, partner max 1 µM) | -0.0516

###

Let's look at some compounds and their measured Bliss excess.
# Test system: KS-1 (Glioblastoma)
# Method: Bliss excess, mean over the matrix (fraction); higher = more synergy
Measure: Bliss excess

1. N#Cc1cnc(Nc2cc(NC[C@H]3CNCCO3)c(C(F)(F)F)cn2)cn1 [SRA737] + CCc1c2c(nc3ccc(O)cc13)-c1cc3c(c(=O)n1C2)COC(=O)[C@]3(O)CC [SN-38] (first compound max 10 µM, 7x7, partner max 0.3 µM) | -0.0798
2. COc1nnc2ccc(N3CCC(c4ccc(OCCN5CCN(C)C(=O)[C@H]5C)cc4)CC3)nn12 [AZD5153] + CCN(CCO)CCCOc1ccc2c(Nc3cc(CC(=O)Nc4cccc(F)c4)[nH]n3)ncnc2c1 [AZD2811] (first compound max 1 µM, 7x7, partner max 1 µM) | -0.0317
3. Cc1c2c(nn1C)CSCc1cc(n(C)n1)CSc1cc(c3ccccc3c1)OCCCc1c(C(=O)O)n(C)c3c-2c(Cl)ccc13 [AZD5991] + Nc1ccn([C@@H]2O[C@H](CO)[C@@H](O)C2(F)F)c(=O)n1 [Gemcitabine] (first compound max 1 µM, 7x7, partner max 0.3 µM) | -0.0354
4. O=C(c1cc(Cc2n[nH]c(=O)c3ccccc23)ccc1F)N1CCN(C(=O)C2CC2)CC1 [Olaparib] + CC1(C)CCC(CN2CCN(c3ccc(C(=O)NS(=O)(=O)c4ccc(NCC5CCOCC5)c([N+](=O)[O-])c4)c(Oc4cnc5[nH]ccc5c4)c3)CC2)=C(c2ccc(Cl)cc2)C1 [Venetoclax] (first compound max 10 µM, 7x7, partner max 1 µM) | -0.0442

###

Let's look at some compounds and their measured Bliss excess.
# Test system: LOXIMVI (Melanoma)
# Method: Bliss excess, mean over the matrix (fraction); higher = more synergy
Measure: Bliss excess

1. C[C@@H](Oc1cc(-c2cnn(C3CCNCC3)c2)cnc1N)c1c(Cl)ccc(F)c1Cl [Crizotinib] + Cn1cnc2c(F)c(Nc3ccc(Br)cc3Cl)c(C(=O)NOCCO)cc21 [Selumetinib] (first compound max 10 µM, 7x7, partner max 10 µM) | -0.0068
2. CN(CCO)CC[C@H](CSc1ccccc1)Nc1ccc(S(=O)(=O)NC(=O)c2ccc(N3CCC([C@@H](O)c4ccccc4-c4ccc(Cl)cc4)CC3)cc2)cc1S(=O)(=O)C(F)(F)F [AZD4320] + C1CN(CCC1(C(=O)N[C@@H](CCO)C2=CC=C(C=C2)Cl)N)C3=NC=NC4=C3C=CN4 [Capivasertib] (first compound max 1 µM, 7x7, partner max 3 µM) | -0.0189
3. CCN(CCO)CCCOc1ccc2c(Nc3cc(CC(=O)Nc4cccc(F)c4)[nH]n3)ncnc2c1 [AZD2811] + C[C@@H]1COCCN1C2=NC(=NC(=C2)C3(CC3)[S@](=N)(=O)C)C4=C5C=CNC5=NC=C4 [AZD6738] (first compound max 1 µM, 7x7, partner max 10 µM) | -0.0763

###

# System: MPP-89 (Mesothelioma)
# Method: combination Emax (second highest fraction inhibited in the dose matrix, 72 h); higher = more inhibition; extreme values may be limits of the assay
Measure: combination Emax

1) Cc1cc2ncnn2cc1Nc1ncc2c(n1)n(C1CCOCC1)c(=O)n2C [AZD7648] + CN(C)CCCOc1ccc(-c2ccc3ncc4c(c3c2)n(C2CCOCC2)c(=O)n4C)cn1 [AZD0156] (first compound max 10 µM, 7x7, partner max 1 µM) | 0.302
2) C[C@@H](Oc1cc(-c2cnn(C3CCNCC3)c2)cnc1N)c1c(Cl)ccc(F)c1Cl [Crizotinib] + Cn1cnc2c(F)c(Nc3ccc(Br)cc3Cl)c(C(=O)NOCCO)cc21 [Selumetinib] (first compound max 10 µM, 7x7, partner max 10 µM) | 0.37
3) Cc1c2c(nn1C)CSCc1cc(n(C)n1)CSc1cc(c3ccccc3c1)OCCCc1c(C(=O)O)n(C)c3c-2c(Cl)ccc13 [AZD5991] + CS(=O)(=O)CCNCc1ccc(-c2ccc3ncnc(Nc4ccc(OCc5cccc(F)c5)c(Cl)c4)c3c2)o1 [Lapatinib] (first compound max 1 µM, 7x7, partner max 10 µM) | 0.312
4) CCc1c2c(nc3ccc(O)cc13)-c1cc3c(c(=O)n1C2)COC(=O)[C@]3(O)CC [SN-38] + CN(C)CCCOc1ccc(-c2ccc3ncc4c(c3c2)n(C2CCOCC2)c(=O)n4C)cn1 [AZD0156] (first compound max 0.3 µM, 7x7, partner max 1 µM) | 0.632
